- Measurement Description: NCI Yeast Anticancer Drug Screen. Data for the mlh1 rad18 strain (AID 175)
- Run Parameters: S. cerevisiae mlh1 rad18 strain growth inhibition; at 50.0 µM (retest, dose inferred, filed as 5.0); stronger effect = higher value
About 79,000 compounds went through this panel and 15% of them were active in at least one assay; those are over-represented in the sample as a whole.
Property Label: growth inhibition (%)
Give the number; % is assumed, so skip it.

Q: // lookup growth inhibition for C=CCNC(=S)N/N=C(/c1ccccn1)C(C)C
Ans: 69

Q: Next compound up: CCCCCCCCCCCC[n+]1ccc(C#N)cc1
Ans: 92

Q: Next compound up: O=Cc1ccc(-c2nccc3c2[nH]c2ccccc23)o1
Ans: 25

Q: Next compound up: CCN(CC)CCNc1c(OC)cc(C)c2sc3ccccc3c(=O)c12
Ans: 86

Q: Next compound up: CC(C)C1=CC23CCC4C(C)(C(=O)O)CCCC4(C)C2CC1CC3C#N (stereo unspecified)
Ans: 39

Q: Next compound up: OCCC1CCN(CC/C=C2/c3ccc(F)cc3Sc3ccc(C(F)(F)F)cc32)CC1
Ans: 56

Q: Next compound up: [O-]c1c(-c2cccc3ccccc23)sc(-c2cccc3ccccc23)[n+]1-c1ccccc1
Ans: 92

----------
- Measurement Description: NCI Yeast Anticancer Drug Screen. Data for the cln2 rad14 strain (AID 165);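 note: 0% = growth equal to vehicle treated cultures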
- Run Parameters: S. cerevisiae cln2 rad14 strain, at 50.0 µM
Compounds without any hit were thinned out: in the full panel of roughly 79,000, 15% have a hit. Calls of active or inactive are those of the source. No stated cut-off is given here; in the data, active means growth inhibition above about 70%; inactive means the rest.
Classes to choose from: 1 (active), 0 (inactive)

- Molecule: "O=C(NCCN1CCCC1)c1cn2c(ccc3sc4ccccc4c(=O)c32)n1"
  Class Name: 0
- Molecule: "CC(CN(C)C)C(=O)/C=C/c1ccc(C(C)C)cc1 (stereo not drawn)"
  Class Name: 0
- Molecule: "BrC(Br)([P+](c1ccccc1)(c1ccccc1)c1ccccc1)[P+](c1ccccc1)(c1ccccc1)c1ccccc1"
  Class Name: 0
- Molecule: "O=C(NCC#CCO)C(F)(F)F"
  Class Name: 0
- Molecule: "COc1ccc2c(Cc3ccc(Cl)cc3)cncc2c1O"
  Class Name: 1
- Molecule: "CCN(CC)CCCCNc1ccc(Cl)cc1"
  Class Name: 0

Now consider the entry below.
Q: For O=C(O)/C(=C\c1cc(I)c(O)c(I)c1)c1ccc(I)cc1 , what call appears in the results of this test?
Ans: 1

----------
- Measurement Description: NCI Yeast Anticancer Drug Screen. Data for the sgs1 mgt1 strain (AID 161);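 note: 0% = growth of cultures given vehicle only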
- Run Parameters: S. cerevisiae sgs1 mgt1 strain, at 50.0 µM (retest, dose inferred, filed as 5.0), stronger effect = higher value
About 79,000 compounds went through this panel and 15% of them were active in at least one assay; those are over-represented in the sample as a whole.
Decision: growth inhibition >= 90% yields MET, all other cases yield NOT MET.

Record excerpt, results attached:
- Compound: "C=C(Br)CN1CCC2(c3ccccc3)C(O)C([Se]c3ccccc3)CCC12 (stereo unspecified)"
  Class Name: "NOT MET"
- Compound: "CC(C(=O)NN)C(O)C(C)(C)O (stereo unspecified)"
  Class Name: "NOT MET"
- Compound: "CN1C(OCc2ccccc2)c2c(ccc3c2OCO3)C2C=Cc3cc4c(cc3C21)OCO4 (stereo unspecified)"
  Class Name: "MET"
- Compound: "O=c1ccc2nc3ccccc3ccc-2c1"
  Class Name: "NOT MET"
- Compound: "CCCCNc1ccc(C(=O)OC2CCN(C)CC2)c(Cl)c1"
  Class Name: "MET"

Q: Exam item: decide whether the reported growth inhibition for CC(CN(C)C)C(=O)/C=C/c1ccc(C(C)C)cc1 (stereo unspecified) is at least 90%.
Ans: MET

Q: Next compound up: Nc1cc(Cl)c2c(c1)Cc1ccccc1-2
Ans: MET
